Molecular target: Toxin B (Clostridioides difficile) (UniProt P18177)
Sequence (P18177 whole entry, looked up): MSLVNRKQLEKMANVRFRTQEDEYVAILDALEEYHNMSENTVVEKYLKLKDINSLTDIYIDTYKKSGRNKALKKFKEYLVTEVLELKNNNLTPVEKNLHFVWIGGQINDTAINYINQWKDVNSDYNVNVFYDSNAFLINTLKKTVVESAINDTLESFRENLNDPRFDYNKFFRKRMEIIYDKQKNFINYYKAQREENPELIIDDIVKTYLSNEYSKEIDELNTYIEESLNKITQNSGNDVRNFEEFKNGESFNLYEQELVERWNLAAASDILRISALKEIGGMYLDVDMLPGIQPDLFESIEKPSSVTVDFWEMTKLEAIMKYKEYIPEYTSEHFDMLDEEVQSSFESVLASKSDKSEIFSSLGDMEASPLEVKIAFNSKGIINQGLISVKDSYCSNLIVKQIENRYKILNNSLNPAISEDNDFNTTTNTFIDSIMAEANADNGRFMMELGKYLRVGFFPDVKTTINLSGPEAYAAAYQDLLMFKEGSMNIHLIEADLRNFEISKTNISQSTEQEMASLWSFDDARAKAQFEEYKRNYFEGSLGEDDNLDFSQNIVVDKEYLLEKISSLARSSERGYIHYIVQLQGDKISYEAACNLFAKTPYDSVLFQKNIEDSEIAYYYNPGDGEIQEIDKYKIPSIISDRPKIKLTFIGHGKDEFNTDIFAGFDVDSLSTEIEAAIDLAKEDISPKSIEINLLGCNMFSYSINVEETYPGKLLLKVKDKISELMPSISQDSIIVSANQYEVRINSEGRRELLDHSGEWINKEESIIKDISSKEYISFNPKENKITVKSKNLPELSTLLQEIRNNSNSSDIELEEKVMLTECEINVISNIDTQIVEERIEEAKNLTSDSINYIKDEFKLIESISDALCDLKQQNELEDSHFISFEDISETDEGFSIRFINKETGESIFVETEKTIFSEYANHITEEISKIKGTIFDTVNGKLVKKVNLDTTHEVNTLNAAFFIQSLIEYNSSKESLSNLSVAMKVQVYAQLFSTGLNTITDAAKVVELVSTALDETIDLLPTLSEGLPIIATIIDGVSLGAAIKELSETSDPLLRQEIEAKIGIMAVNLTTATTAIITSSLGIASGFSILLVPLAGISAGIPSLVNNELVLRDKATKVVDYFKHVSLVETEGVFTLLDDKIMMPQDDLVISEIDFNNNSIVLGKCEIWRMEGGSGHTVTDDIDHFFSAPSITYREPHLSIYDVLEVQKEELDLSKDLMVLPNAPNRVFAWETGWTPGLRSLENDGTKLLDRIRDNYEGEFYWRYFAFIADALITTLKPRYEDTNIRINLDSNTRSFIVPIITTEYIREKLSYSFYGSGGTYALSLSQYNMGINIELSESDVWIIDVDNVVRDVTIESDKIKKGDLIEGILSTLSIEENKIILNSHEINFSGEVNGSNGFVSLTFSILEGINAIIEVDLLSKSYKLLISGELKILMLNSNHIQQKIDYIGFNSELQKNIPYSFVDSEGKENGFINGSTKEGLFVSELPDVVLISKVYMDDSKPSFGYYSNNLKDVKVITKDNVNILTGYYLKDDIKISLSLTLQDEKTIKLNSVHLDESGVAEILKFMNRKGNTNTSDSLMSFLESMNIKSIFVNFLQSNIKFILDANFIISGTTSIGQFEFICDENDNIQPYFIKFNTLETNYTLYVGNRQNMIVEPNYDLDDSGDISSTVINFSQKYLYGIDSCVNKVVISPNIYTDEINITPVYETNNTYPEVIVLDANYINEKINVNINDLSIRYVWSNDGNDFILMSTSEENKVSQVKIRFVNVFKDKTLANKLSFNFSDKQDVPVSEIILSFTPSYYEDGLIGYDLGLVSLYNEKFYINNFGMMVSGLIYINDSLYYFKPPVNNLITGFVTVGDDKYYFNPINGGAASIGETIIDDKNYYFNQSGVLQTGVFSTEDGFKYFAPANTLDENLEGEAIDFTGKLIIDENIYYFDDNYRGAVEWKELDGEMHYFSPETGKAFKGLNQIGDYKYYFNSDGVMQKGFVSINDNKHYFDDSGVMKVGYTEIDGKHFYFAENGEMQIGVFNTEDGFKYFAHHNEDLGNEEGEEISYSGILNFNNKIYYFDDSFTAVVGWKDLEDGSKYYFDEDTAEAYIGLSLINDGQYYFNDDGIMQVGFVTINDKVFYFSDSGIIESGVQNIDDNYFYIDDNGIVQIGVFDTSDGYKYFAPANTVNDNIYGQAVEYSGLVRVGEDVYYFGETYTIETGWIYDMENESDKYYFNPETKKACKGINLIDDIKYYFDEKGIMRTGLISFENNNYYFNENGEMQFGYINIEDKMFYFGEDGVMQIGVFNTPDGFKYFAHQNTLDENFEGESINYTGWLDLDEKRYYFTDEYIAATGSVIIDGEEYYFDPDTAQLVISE
Assay: TcdB glycohydrolase inhibitors, primary screen, biochemical, single point, plate reader (AID 652162)
Settings: TcdB glycohydrolase enzymatic assay, at 9.99 µM
Among all 350,000 compounds or so, about 840 (0.24%) were called active. Cut-off read from the data, not from the text of the source: active = inhibition above about 10%; inactive = the rest. Only a selection was taken, and actives are over-represented in it overall.
# output must be one of True = active, False = inactive

// query Which outcome was entered for the compound C[C@@H]1CN([C@@H](C)CO)C(=O)c2cc(NC(=O)Nc3ccc(C(F)(F)F)cc3)ccc2O[C@@H](C)CCCCO[C@@H]1CN(C)C(=O)Nc1cccc2ccccc12 in this test?
// result False

// query For N#C[C@@H]1[C@H](c2ccccc2-c2cccc(F)c2)[C@@H](CO)N1C(=O)CN1CCOCC1 , which call appears in the assay record?
// result False

// query In this assay, the call recorded for COC(=O)C[C@H]1CC[C@H]2[C@@H](COc3ccc(NC(=O)C4CC4)cc3C(=O)N2C)O1 was what?
// result False

// query Given CN(CCOc1ccccc1)Cc1nc2cc(Cl)ccc2c(=O)[nH]1 , state the outcome it received in this test.
// result False

// query // param item: CCC(=O)N(C)C[C@@H]1Oc2ncc(C#Cc3cccnc3)cc2C(=O)N([C@@H](C)CO)C[C@@H]1C ; yields the recorded call
// result False

// query Hi, do you know how COc1ccccc1-c1cnc2c(c1)C(=O)N([C@H](C)CO)C[C@H](C)[C@H](CN(C)C(=O)CN(C)C)O2 came out in this test?
// result False

// query Can you look up the reported call for CCS(=O)(=O)Nc1ccc2c(c1)C(=O)N(C)C[C@@H](OC)[C@@H](C)CN(C(=O)COC)[C@H](C)CO2 for me?
// result False

// query Test call, this compound: C=CCn1c(SCc2ccccc2)nc2c1c(=O)[nH]c(=O)n2C
// result False

// query I would be grateful if you could indicate the recorded call for COc1ccc(NC(=O)N(C)C[C@@H]2Oc3c(NC(=O)c4ccc(-c5nccs5)cc4)cccc3C(=O)N([C@H](C)CO)C[C@@H]2C)cc1 .
// result False

// query Test call for this compound, please: Cn1c(=O)[nH]c(=O)c2c1[nH]c(=S)n2Cc1ccccc1
// result True

// query Lab log entry: O=C(C1CCC1)N1CC(=O)N2[C@H](CO)[C@H](c3ccc(C#CCc4ccccc4)cc3)[C@@H]2C1 — outcome as called in the assay?
// result False

// query Per the assay record, what outcome was assigned to C[C@@H]1CN([C@H](C)CO)C(=O)c2cc(-c3ccc(C(=O)N(C)C)cc3)cnc2O[C@H]1CN(C)C(=O)C1CC1 ?
// result False

// query Outcome? Cc1nnc(Sc2nc3c(c(=O)[nH]c(=O)n3C)n2Cc2ccccc2)s1
// result False

// query Give the logged outcome of this assay for the following compound: O=c1[nH]c(CN2CCOCC2)nc2cc(Cl)ccc12
// result True

// query Outcome? COc1ccc2c3c([nH]c2c1)[C@@H](CO)N(C(=O)CC1CC1)CC31CCN(Cc2cccnc2)CC1
// result False

// query What call does the record list for C[C@@H]1CN([C@H](C)CO)C(=O)c2cc(NC(=O)Nc3cccc4ccccc34)ccc2O[C@H]1CN(C)C(=O)Nc1ccccc1 ?
// result False

// query What outcome does the record of this test show for C[C@@H]1CCCCO[C@H](CN(C)C(=O)Nc2cccc3ccccc23)[C@H](C)CN([C@@H](C)CO)C(=O)c2cc(NC(=O)CCCN(C)C)ccc2O1 ?
// result False
